Experimental target: human cardiac calcium pump (SERCA2a) (Homo sapiens, UniProt P16615)
Sequence (P16615 1-997 isoform P16615-2): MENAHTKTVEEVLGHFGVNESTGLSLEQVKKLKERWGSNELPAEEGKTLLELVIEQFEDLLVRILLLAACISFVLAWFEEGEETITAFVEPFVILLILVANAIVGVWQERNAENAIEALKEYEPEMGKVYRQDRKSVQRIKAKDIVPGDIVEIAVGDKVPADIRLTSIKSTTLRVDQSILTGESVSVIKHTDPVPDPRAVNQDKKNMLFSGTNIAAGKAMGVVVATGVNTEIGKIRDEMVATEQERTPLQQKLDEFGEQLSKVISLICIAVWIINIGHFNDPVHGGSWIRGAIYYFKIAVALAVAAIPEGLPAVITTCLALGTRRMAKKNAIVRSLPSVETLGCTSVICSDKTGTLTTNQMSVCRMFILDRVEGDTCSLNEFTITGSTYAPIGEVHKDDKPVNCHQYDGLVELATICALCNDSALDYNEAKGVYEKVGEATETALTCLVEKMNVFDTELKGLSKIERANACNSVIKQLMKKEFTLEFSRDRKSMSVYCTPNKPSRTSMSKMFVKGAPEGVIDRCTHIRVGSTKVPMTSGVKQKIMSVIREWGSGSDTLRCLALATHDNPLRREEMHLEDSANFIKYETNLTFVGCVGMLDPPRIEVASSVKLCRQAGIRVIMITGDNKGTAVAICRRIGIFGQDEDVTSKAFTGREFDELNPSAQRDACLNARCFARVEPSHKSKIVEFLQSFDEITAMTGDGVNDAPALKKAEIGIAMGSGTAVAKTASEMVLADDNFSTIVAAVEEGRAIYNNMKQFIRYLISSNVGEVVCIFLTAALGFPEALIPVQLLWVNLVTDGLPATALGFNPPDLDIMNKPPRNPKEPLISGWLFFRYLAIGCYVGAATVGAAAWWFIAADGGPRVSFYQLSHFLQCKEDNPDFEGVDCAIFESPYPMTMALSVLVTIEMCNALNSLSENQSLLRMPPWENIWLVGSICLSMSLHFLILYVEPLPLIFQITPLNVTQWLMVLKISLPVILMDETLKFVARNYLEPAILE
Experiment description: 2CS (G/R, GFP/RFP) FRET fluorescence lifetime biosensor in living HEK293 cells
Type: cell-based
Parameters: expressed in transfected cells
Test context: LOPAC hits, 16-point CRC, Hill fit; apparent EC50 for FPL 64176 (no saturation); read-out: EC50 of lifetime change, 2CS (GFP/RFP)
Recorded metric: EC50 (µM)
The reply should contain only the number, in µM.

Query EC50 for `c1ccc(C(NCc2cccnc2)(c2ccccc2)c2ccccc2)cc1`
13.8

----------
Experimental target: SERCA1a (Oryctolagus cuniculus)
Sequence (P04191 1-994 isoform P04191-2): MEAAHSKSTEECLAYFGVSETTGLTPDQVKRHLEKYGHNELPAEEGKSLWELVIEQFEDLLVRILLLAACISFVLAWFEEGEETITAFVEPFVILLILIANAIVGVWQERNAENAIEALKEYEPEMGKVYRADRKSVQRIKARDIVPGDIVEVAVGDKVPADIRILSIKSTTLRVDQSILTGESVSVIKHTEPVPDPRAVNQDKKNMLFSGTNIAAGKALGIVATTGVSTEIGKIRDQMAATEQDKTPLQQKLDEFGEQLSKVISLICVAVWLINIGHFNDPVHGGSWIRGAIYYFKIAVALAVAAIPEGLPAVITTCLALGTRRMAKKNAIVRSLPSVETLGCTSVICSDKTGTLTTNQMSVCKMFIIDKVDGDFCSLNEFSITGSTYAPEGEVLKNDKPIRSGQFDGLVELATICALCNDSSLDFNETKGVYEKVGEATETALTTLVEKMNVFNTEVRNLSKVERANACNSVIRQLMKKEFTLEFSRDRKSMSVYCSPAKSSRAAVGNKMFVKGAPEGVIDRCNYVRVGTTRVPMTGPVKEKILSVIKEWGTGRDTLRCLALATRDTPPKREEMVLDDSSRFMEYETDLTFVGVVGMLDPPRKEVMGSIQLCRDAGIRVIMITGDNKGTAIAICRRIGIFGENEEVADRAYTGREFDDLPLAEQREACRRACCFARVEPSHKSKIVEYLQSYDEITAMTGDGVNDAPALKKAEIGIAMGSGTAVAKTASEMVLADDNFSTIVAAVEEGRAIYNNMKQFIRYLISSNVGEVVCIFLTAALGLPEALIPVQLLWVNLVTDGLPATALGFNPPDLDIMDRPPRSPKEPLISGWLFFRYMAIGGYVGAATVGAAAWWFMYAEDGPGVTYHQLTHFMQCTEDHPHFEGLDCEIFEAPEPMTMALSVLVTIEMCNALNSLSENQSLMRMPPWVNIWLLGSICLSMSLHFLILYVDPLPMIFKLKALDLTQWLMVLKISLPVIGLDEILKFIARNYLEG
Recorded metric: pIC50
By convention, pIC50 is the negative base-10 log of a molar concentration.

Dear colleague, please send me the reported pIC50 for Oc1ccc2ccccc2c1SSc1c(O)ccc2ccccc12 [IPA3] when you can.
5.02

All figures here come from paper PMC6315989.
